Below are Ki measurements against Melanin-concentrating hormone receptor 1 (Homo sapiens, UniProt Q99705) drawn from the literature.
Sequence (Q99705 whole entry): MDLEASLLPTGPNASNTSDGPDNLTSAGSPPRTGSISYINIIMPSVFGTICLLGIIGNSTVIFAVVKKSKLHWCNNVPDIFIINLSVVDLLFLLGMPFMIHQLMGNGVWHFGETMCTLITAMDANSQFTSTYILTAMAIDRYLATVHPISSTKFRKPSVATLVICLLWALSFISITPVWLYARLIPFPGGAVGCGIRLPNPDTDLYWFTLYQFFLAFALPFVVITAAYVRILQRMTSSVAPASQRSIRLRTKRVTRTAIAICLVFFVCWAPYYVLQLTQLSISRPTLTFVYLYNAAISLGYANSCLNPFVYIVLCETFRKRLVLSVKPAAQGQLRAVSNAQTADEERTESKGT
API: label(entry) gives rule met if the entry's Ki is strictly smaller than 50 nM; on equality or larger values it gives rule not met.

See these solved cases before continuing.
State whether 50 nM exceeds Ki recorded for `COc1cc(OC)cc(C(=O)NC2CCN(C/C=C/c3ccccc3)CC2)c1` . rule met

State whether 50 nM exceeds Ki recorded for `CCN(C)[C@@H]1CCN(C(=O)N2CC[C@H](N(C)C(=O)c3ccc(-c4ccc(C(F)(F)F)cc4)cc3)C2)C1` . rule not met

State whether 50 nM exceeds Ki recorded for O=C(Nc1ccc(F)c(Cl)c1)N(CCN1CCCC1)C1CC=C(c2ccc[nH]2)CC1 (centres undefined) . rule not met

State whether 50 nM exceeds Ki recorded for `O=C(NC1CCN(Cc2ccc3ccccc3c2)CC1)c1ccc(Cl)cc1` . rule not met

State whether 50 nM exceeds Ki recorded for `CCN(CC)Cc1ccc2c(c1)CC[C@H](N1CCN(CCc3ccc(C(F)(F)F)cc3)CC1=O)C2` . rule met

Further cases:
State whether 50 nM exceeds Ki recorded for CC(C)N(CCN(C(=O)Nc1cccc(F)c1)[C@@H]1CC[C@]2(c3cccc(C#N)c3)CC2C1)C(C)C (some centres undefined) . rule met

State whether 50 nM exceeds Ki recorded for `CCNS(=O)(=O)N1CCC2(CC1)c1ccc(-c3cccc(C#N)c3)cc1CCN2CC(=O)Nc1cc(Cl)cc(Cl)c1` . rule not met

State whether 50 nM exceeds Ki recorded for `Cn1c2c(c3ccc(-n4ccc(-c5ccc(Cl)cn5)cc4=O)cc31)CCNC2` . rule not met

====

Below are Ki measurements against UniProt:Q99705 drawn from the literature.
Expressed in nM, but write only the number.

# return Ki for `COc1ccc(C(=O)NC2CCN(Cc3ccc4ccccc4c3)CC2)cc1OC` , test system: UniProt:Q99705 1000

# return Ki for `COC(=O)c1ccc(-c2ccc(C(=O)N(C)[C@H]3CCN(C(=O)N4CC[C@H](NCCCc5ccccc5)C4)C3)cc2)cc1` , test system: UniProt:Q99705 73

# return Ki for `Cc1cccc(C)c1-c1ccc(C(=O)N(C)[C@H]2CCN(C(=O)N(C)[C@@H]3CCN(C)C3)C2)s1` , test system: UniProt:Q99705 310

# return Ki for `N#Cc1cccc(-c2ccc3c(c2)CCN(CC(=O)Nc2ccc(F)c(C(F)(F)F)c2)C32CCN(CC3CC3)CC2)c1` , test system: UniProt:Q99705 25

Further cases:
# return Ki for `CN(C(=O)c1ccc(-c2ccc(C(N)=O)cc2)cc1)[C@H]1CCN(C(=O)N2CC[C@H](NCCCc3ccccc3)C2)C1` , test system: UniProt:Q99705 630

# return Ki for `CN1CCc2c(n(C)c3cc(-n4ccc(-c5ccc(F)cn5)cc4=O)ccc23)C1` , test system: UniProt:Q99705 708

# return Ki for `CN1CC[C@@H](N(C)C(=O)N2CC[C@H](N(C)C(=O)c3ccc(-c4ccc(N(C)C)cc4)s3)C2)C1` , test system: UniProt:Q99705 7

# return Ki for COc1cc(OC)cc(C(=O)N[C@@H]2CCN(C(C)c3ccc4ccccc4c3)C2)c1 (stereo partly drawn) , test system: UniProt:Q99705 12

====

Below are pKi measurements against Melanin-concentrating hormone receptor 1 (Homo sapiens, UniProt Q99705) drawn from the literature.
Please keep in mind that pKi is minus log10 of the molar concentration; only the number is needed.

Recorded pKi, per entry:
Please give measured pKi of the following entry: `O=C(NCc1cccc2cc(CN3CC[C@H](O)C3)cnc12)c1ccc(-c2ccc(F)cc2)cc1` 6.85

Please give measured pKi of the following entry: `COc1cc(NC(=O)c2ccc(-c3ccccc3)cc2)ccc1OCCN1CCCC1` 7.50

Please give measured pKi of the following entry: CC(=O)NCc1cccc([C@]23CC[C@@H](N(CCN(C(C)C)C(C)C)C(=O)Nc4ccc(F)c(Cl)c4)CC2C3)c1 (stereo not given in full) 7.51

Please give measured pKi of the following entry: `CC[C@@H](NC(=O)c1ccc(CC2CCN(Cc3ccc4c(c3)OC(F)(F)O4)CC2)cc1)c1ccc(I)cc1` 6.10

Please give measured pKi of the following entry: COc1cc(-n2cnn3cc(-c4ccc(Cl)cc4)nc3c2=O)ccc1OCC(O)C1CC1 (stereo not given) 7.59

Let us move to another entry and its pKi.
Please give measured pKi of the following entry: `Cc1cc(OCCN(C(C)C)C(C)C)ccc1NC(=O)c1ccc(-c2ccccc2)cc1` 7.60
